TESTED_SYSTEM: T1, hCD112R mFC recombinant protein (human; murine, UniProt Q6DKI7 41-160)
T1 construct: range 41-160; expressed in 293E cells; also called hCD112R ECD mFC; hCD112R-ECD-mFC; not shown: murine IgG2a Fc domain (MX2-mFc vector)
T1 sequence (looked up): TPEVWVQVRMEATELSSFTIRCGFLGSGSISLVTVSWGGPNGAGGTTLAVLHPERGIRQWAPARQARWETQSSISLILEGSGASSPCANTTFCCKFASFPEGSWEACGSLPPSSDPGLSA
PROCEDURE_SUMMARY: ELISA, coated hCD112R-ECD-mFC; EC50 COM701/EC50 antibody
Property: Relative activity (%); scope: individual binders
MEASURED_METRIC: Relative activity (%)

BINDER	UNIT_ABBREVIATION	NUMERIC_READOUT
Hu53 (antibody, IgG4, V domains shown, humanized IgG4) VH: EVQLVESGGGLVKPGGSLRLSCAASGFTFSSYHMSWVRQAPGKGLELVSAINSNGINTYYLDTVKGRFTISRDNAKNSLYLQMNSLRAEDTAVYYCARHEDYYGFAMDYWGQGTLVTVSS VL: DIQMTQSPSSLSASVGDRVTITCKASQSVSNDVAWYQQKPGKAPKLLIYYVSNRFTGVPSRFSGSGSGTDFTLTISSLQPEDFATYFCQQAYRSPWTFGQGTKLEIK	%	169
Hu26 (antibody, IgG4, V domains shown, humanized IgG4) VH: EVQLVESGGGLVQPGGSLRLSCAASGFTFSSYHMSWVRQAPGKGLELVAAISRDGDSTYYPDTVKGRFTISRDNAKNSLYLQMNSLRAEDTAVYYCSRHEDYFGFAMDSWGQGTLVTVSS VL: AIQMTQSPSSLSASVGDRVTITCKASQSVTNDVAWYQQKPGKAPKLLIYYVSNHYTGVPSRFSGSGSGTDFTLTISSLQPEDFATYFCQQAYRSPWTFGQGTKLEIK	%	190
Hu7 (antibody, IgG4, V domains shown, humanized IgG4; also called Hu-07) VH: EVQLVESGGGLVKPGGSLRLSCAASGFTFSSYHMSWVRQAPGKGLELVSAINSNDINTYYLDTVKGRFTISRDIAKNSLYLQMNSLRAEDTAVYYCARHEDYYGFAMDYWGQGTLVTVSS VL: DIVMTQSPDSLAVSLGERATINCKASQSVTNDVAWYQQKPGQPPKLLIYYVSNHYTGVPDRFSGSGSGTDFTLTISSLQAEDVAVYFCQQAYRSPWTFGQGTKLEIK	%	91
Hu15 (antibody, IgG4, V domains shown, humanized IgG4) VH: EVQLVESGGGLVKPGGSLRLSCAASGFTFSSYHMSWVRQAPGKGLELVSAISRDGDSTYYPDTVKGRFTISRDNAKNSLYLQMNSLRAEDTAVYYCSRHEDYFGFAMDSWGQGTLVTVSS VL: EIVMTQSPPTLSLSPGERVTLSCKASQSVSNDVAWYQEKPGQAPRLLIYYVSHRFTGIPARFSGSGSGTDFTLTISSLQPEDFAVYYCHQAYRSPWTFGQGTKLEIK	%	127
Hu36 (antibody, IgG4, V domains shown, humanized IgG4) VH: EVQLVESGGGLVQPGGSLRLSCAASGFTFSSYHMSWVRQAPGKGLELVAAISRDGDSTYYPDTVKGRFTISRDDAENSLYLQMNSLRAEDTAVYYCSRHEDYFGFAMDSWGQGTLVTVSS VL: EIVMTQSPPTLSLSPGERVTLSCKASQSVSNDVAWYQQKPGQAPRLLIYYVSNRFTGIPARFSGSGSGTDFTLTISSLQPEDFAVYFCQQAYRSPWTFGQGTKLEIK	%	142
